Molecular target: IL-17A : IL-17RA binding (Homo sapiens, UniProt Q16552, K93Q)
Construct: Name: IL-17A-Flag
Sequence (Q16552 with tags, fused parts or gaps K93Q): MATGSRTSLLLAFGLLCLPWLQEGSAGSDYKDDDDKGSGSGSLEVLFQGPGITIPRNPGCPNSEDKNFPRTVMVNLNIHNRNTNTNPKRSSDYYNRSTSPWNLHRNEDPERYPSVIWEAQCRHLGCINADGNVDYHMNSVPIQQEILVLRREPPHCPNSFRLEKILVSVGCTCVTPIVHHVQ
Assay: IL-17A(FLAG-tagged):IL-17RA(His-tagged) binding disruption Eu-HTRF assay, Protocol 1
Conditions: FLAG-IL-17A 2.5 nM at 2x final concentration; average if tested more than once
From the text: An antibody directed against the FLAG tag of IL-17A (SEQ ID NO: 1) is labeled with the HTRF donor chromophore (Europium-cryptate). […] The fluorescence-resonance energy transfer (FRET) depends on the vicinity of the donor chromophore to the acceptor, and interruption of the binding between the IL-17A and IL-17RA causes the reduction/loss of FRET. Therefore, this assay allows to evaluate the compound effect on the binding IL-17A and IL-17RA by monitoring the fluorescence intensity of donor vs acceptor. […]
propertyName: IC50

| compound | recordedMeasurement |
| --- | --- |
| Cc1nonc1C(=O)N[C@H](c1nc2ccc([C@H](NC(=O)CC3CC(F)(F)C3)C3CC3)cc2[nH]1)C1CCCCO1 (single isomer, unassigned) | > 100 nM |
| C[C@@H](NC(=O)CCC(F)(F)F)c1ccc2nc([C@@H](NC(=O)c3cnnn3C3CC3)C3CCC(F)(F)CC3)[nH]c2c1 | > 100 nM |

Give measured IC50 for every item shown.
1. Cc1nonc1C(=O)N[C@H](c1nc2cc([C@H](NC(=O)CCC(F)(F)F)C3CC3)ccc2[nH]1)[C@@H]1CCCC(F)(F)C1
2. C[C@@H](NC(=O)CCC(F)(F)F)c1ccc2[nH]c([C@@H](NC(=O)c3ncn(CC4CC4)n3)C3CCC(F)(F)CC3)nc2c1
3. Cn1nccc1C(=O)N[C@H](c1nc2cc(C(NC(=O)CCC(F)(F)F)C3CC3)ccc2[nH]1)C1CCC(F)(F)CC1 (single isomer, unassigned) [Example 55]
4. Cc1nonc1C(=O)N[C@H](c1nc2cc([C@H](NC(=O)CC(C)C(F)(F)F)C3CC3)ccc2[nH]1)[C@@H]1CCCC(F)(F)C1 (single isomer, unassigned) [Example 258]
5. Cc1nonc1C(=O)N[C@@H](CC(C)(C)C(F)(F)F)c1nc2cc([C@H](NC(=O)CCC(F)(F)F)C3CC3)ccc2[nH]1 (relative stereo)
6. C[C@@H](NC(=O)CCC(F)(F)F)c1ccc2[nH]c([C@@H](NC(=O)c3ncnn3CCC(F)F)C3CCC(F)(F)CC3)nc2c1
7. C[C@@H](NC(=O)CCC(F)(F)F)c1ccc2[nH]c([C@@H](NC(=O)C3CC34CCC4)C3CCC(F)(F)CC3)nc2c1 (some centres unmarked)
8. C[C@@H](NC(=O)CCC(F)(F)F)c1ccc2[nH]c([C@@H](NC(=O)C3(C(F)(F)F)CC3)C3CCC(F)(F)CC3)nc2c1

["< 50 nM", "> 100 nM", "> 100 nM", "50 to 100 nM", "< 50 nM", "> 100 nM", "> 100 nM", "> 100 nM"]

Each compound below has a reported value. Please supply its IC50.
1. C[C@@H](NC(=O)CCC(F)(F)F)c1ccc2nc([C@@H](NC(=O)c3cnn(CC4CCC4)n3)C3CCC(F)(F)CC3)[nH]c2c1
2. CC(C)c1scnc1C(=O)N[C@H](c1nc2cc([C@@H](C)NC(=O)CCC(F)(F)F)ccc2[nH]1)C1CCC(F)(F)CC1
3. O=C(CC1CC(F)(F)C1)N[C@@H](c1ccc2[nH]c([C@@H](NC(=O)c3nonc3OCC(F)F)C3CCC(F)(F)CC3)nc2c1)C1CC1
4. CCc1nonc1C(=O)N[C@@H](CC(C)(C)C(F)(F)F)c1nc2cc([C@@H](NC(=O)CCC(F)(F)F)C3CC3)ccc2[nH]1 (relative stereo)
5. CC(C)n1nccc1C(=O)N[C@@H](CC(C)(C)C(F)(F)F)c1nc2ccc([C@H](NC(=O)CC3CC(F)(F)C3)C3CC3)cc2[nH]1
6. C[C@@H](NC(=O)CCC(F)(F)F)c1ccc2[nH]c([C@@H](NC(=O)c3cn(CC4CC(F)(F)C4(F)F)nn3)C3CCC(F)(F)CC3)nc2c1 (some centres unmarked)
7. C[C@@H](NC(=O)CCC(F)(F)F)c1ccc2[nH]c([C@@H](NC(=O)c3cnn(C)c3CCC(F)(F)F)C3CCC(F)(F)CC3)nc2c1

1: > 100 nM; 2: 50 to 100 nM; 3: > 100 nM; 4: > 100 nM; 5: > 100 nM; 6: > 100 nM; 7: > 100 nM

Field: IC50. Fill in for each record below.
1. CC(C)c1oncc1C(=O)N[C@H](c1nc2cc([C@@H](C)NC(=O)CCC(F)(F)F)ccc2[nH]1)C1CCC(F)(F)CC1
2. Cc1nonc1C(=O)N[C@H](c1nc2cc([C@H](NC(=O)CC3CC(F)(F)C3)C3CC3)ccc2[nH]1)C1CCC(F)(F)CC1
3. O=C(CC1CC(F)(F)C1)N[C@@H](c1ccc2nc([C@@H](NC(=O)c3nonc3C3CC3)[C@@H]3C[C@@H]4[C@H](C3)C4(F)F)[nH]c2c1)C1CC1
4. CC(NC(=O)CCC(F)(F)F)c1ccc2nc([C@H](CC(C)(C)C(F)(F)F)NC(=O)c3ccnn3C(C)C)[nH]c2c1 (single isomer, unassigned) [Example 231]
5. CC(C)n1nccc1C(=O)NC(COC(C)(C)C(F)(F)F)c1nc2ccc([C@H](NC(=O)CC3CC(F)(F)C3)C3CC3)cc2[nH]1 (single isomer, unassigned)
6. C[C@@H](NC(=O)CCC(F)(F)F)c1ccc2nc([C@@H](NC(=O)c3cnnn3CC3CCC3)C3CCC(F)(F)CC3)[nH]c2c1

["< 50 nM", "< 50 nM", "< 50 nM", "> 100 nM", "> 100 nM", "50 to 100 nM"]
